Assay: Cytotoxicity against human HuH7 cells assessed as cell viability after 48 hrs by Alamar blue assay
Assay type: cell-based, Huh-7
measuredQuantity: CC50 at 48 h

| compoundStructureString | CC50 at 48 h |
| --- | --- |
| Cc1cc2oc(-c3ccc(-c4ccccc4)cc3)cc(=O)c2cc1Cl | > 90 µM |
| Nc1ccc(-c2ccc(-c3cc(=O)c4ccccc4o3)cc2)cn1 | > 15 µM |
| Cc1ccc2c(=O)cc(-c3ccc(Oc4ccc(Cl)cc4)cc3)oc2c1 | > 50 µM |

# next compound below
# input // query CC50 at 48 h value for entry O=c1cc(-c2ccc(Oc3ccc(Cl)cc3)cc2)oc2ccccc12
# output > 180 µM

The measurements presented in this section are drawn from ChEMBL document CHEMBL2434892.
